biological target: TRKB (Homo sapiens, UniProt Q16620)
Sequence (Q16620 538-807 limits assumed): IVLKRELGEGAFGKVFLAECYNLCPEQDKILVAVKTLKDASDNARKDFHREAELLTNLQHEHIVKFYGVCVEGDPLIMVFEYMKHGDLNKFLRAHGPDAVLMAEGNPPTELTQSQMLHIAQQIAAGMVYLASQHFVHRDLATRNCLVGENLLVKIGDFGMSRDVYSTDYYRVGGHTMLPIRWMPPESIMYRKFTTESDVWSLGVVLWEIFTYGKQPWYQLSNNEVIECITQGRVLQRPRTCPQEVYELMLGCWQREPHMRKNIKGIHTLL
test_readout: IC50 (nM)
A number alone suffices; assume nM.

Give its IC50 value. Item: `Cc1ccc(C(=O)Nc2ccc(CN3CCN(C)CC3)c(C(F)(F)F)c2)cc1C#Cc1cnc2cccnn12`
15.1

----------
system: Phospho-Erk1/2 in MFE-296 cells; assay: Western immunoblotting; conditions: Homo sapiens, MFE-296, read-out: Phospho-Erk1/2 IC50 (nM)
test_readout: IC50 (nM)
A number alone suffices; assume nM.

Give its IC50 value. Item: `Cc1ccc(C(=O)Nc2ccc(CN3CCN(C)CC3)c(C(F)(F)F)c2)cc1C#Cc1cnc2cccnn12`
5.5

----------
system: Phospho-Erk1/2 in AN3CA cells; assay: Western immunoblotting; conditions: Homo sapiens, AN3-CA, read-out: Phospho-Erk1/2 IC50 (nM)
test_readout: IC50 (nM)
A number alone suffices; assume nM.

Give its IC50 value. Item: `Cc1ccc(C(=O)Nc2ccc(CN3CCN(C)CC3)c(C(F)(F)F)c2)cc1C#Cc1cnc2cccnn12`
5.8

----------
molecular target: PI3Kα (Homo sapiens, UniProt P42336); assay: Kinase assay (RBC)
Sequence (P42336 765-1051 limits assumed): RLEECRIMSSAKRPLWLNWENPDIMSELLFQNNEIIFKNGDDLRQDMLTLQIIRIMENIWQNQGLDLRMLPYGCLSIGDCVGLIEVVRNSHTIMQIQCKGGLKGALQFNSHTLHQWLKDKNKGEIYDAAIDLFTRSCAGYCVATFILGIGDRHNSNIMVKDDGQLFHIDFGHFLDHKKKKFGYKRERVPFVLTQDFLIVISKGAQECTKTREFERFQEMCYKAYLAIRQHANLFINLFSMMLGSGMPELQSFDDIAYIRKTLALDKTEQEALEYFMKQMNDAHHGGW
Sequence (P27986 whole entry partner): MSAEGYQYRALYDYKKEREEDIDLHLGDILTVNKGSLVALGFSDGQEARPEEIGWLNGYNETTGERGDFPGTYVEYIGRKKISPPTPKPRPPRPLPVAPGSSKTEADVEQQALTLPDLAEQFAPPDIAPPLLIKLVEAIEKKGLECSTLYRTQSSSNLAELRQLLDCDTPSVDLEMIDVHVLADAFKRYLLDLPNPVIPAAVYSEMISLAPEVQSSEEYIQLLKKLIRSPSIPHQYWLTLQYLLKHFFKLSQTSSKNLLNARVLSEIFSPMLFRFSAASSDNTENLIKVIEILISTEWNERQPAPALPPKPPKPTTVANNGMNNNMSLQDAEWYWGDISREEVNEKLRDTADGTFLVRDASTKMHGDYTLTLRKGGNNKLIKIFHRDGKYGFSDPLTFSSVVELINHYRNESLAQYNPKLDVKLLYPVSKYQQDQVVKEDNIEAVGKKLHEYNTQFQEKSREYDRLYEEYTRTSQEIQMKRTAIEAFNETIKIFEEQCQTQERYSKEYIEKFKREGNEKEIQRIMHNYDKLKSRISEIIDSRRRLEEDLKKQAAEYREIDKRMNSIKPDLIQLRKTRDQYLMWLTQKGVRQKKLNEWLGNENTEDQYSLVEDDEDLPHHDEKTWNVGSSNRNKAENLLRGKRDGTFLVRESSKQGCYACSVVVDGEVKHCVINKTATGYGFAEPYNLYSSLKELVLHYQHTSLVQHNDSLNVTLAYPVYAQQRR
test_readout: IC50

Give its IC50 value. Item: Cc1ccc(C(=O)Nc2ccc(CN3CCN(C)CC3)c(C(F)(F)F)c2)cc1C#Cc1cnc2cccnn12 [Compound 1]
> 1000 nM

----------
biological target: UniProtKB P21802; assay: Kinase assay (RBC); settings: IC50 (nM), 10 μM ATP
Sequence (P21802 481-770 limits assumed): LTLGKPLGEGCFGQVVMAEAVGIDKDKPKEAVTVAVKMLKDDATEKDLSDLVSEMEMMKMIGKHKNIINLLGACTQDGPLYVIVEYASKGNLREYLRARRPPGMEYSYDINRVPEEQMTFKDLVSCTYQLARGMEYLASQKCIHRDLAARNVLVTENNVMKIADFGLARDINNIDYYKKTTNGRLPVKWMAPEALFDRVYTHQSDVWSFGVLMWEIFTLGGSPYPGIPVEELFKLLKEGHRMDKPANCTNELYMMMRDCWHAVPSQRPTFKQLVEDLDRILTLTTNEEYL
test_readout: IC50 (nM)
A number alone suffices; assume nM.

Give its IC50 value. Item: `Cc1cc2c(F)c(Oc3ncnn4cc(OC[C@@H](C)O)c(C)c34)ccc2[nH]1`
202

----------
tested on: SNU16 gastric cancer cells with amplified FGFR2; assay: cells; details: Homo sapiens, SNU-16, read-out: Cell growth GI50 (nM)
Assignment: determine reported GI50 for the given compounds.
A number alone suffices; assume nM.

Give its GI50 value. Item: COC(=O)c1ccc2c(c1)NC(=O)/C2=C(\Nc1ccc(N(C)C(=O)CN2CCN(C)CC2)cc1)c1ccccc1 [BIBF 1120]
496

Do the same for Cc1ccc(C(=O)Nc2ccc(CN3CCN(C)CC3)c(C(F)(F)F)c2)cc1C#Cc1cnc2cccnn12 [Compound 1] please
42

Do the same for CCN(CC)CCCCNc1ncc2cc(-c3cc(OC)cc(OC)c3)c(NC(=O)NC(C)(C)C)nc2n1 [PD 173074] please
20
